Provenance of the data: patent US6545002B1

- System Under Test: human A2B receptors (hA2B) (Homo sapiens, UniProt P29275)
- Construct: expressed in transfected cells; host or cells: HEK-293 (HEK-A2B, G418-selected)
- Sequence (P29275 1-332): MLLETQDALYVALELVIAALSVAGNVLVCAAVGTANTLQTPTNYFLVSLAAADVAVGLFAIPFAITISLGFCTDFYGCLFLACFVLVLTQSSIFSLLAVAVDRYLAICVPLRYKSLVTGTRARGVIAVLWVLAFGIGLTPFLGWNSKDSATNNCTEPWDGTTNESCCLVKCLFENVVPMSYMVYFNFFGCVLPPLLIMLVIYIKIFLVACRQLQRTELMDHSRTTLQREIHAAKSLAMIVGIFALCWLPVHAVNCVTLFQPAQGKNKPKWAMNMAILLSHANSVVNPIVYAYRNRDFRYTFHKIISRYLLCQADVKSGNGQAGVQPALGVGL
- Protocol Details: Radioligand binding ([125I]ABOPX / [3H]ZM241385) at human A2B receptors expressed in HEK-293 cells
Reported Endpoint: selectivity for human A2B versus human A1 receptors (fold)
Expressed in fold, but write only the number.

Consider the following illustrative entries.
- CCCn1c(=O)c2[nH]c(-c3ccc(OCC(=O)Nc4ccc(I)cc4)cc3)nc2n(CCC)c1=O: 140
- CCCn1c(=O)c2[nH]c(-c3ccc(OCC(=O)Nc4ccc([N+](=O)[O-])cc4)cc3)nc2n(CCC)c1=O: 35
- CCCn1c(=O)c2[nH]c(-c3ccc(OCC(=O)Nc4ccccc4C(C)=O)cc3)nc2n(CCC)c1=O: 120

Moving on to the next molecule.
For the molecule shown here, "CCCn1c(=O)c2[nH]c(-c3ccc(OCC(=O)NN4C(=O)C(C)=C(C)C4=O)cc3)nc2n(CCC)c1=O" , give the reported selectivity for human A2B versus human A1 receptors.
160

###

- System Under Test: human A2B receptors (hA2B) (Homo sapiens, UniProt P29275)
- Construct: expressed in transfected cells; host or cells: HEK-293 (HEK-A2B, G418-selected)
- Sequence (P29275 1-332): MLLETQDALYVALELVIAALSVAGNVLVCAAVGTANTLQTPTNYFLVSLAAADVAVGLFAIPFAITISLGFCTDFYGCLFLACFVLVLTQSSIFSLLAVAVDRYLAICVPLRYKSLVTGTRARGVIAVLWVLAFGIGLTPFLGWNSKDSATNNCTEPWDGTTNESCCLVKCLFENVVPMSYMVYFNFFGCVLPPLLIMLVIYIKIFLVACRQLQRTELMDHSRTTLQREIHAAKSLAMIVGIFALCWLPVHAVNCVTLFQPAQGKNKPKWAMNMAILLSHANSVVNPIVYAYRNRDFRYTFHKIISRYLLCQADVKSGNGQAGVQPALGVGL
- Protocol Details: Radioligand binding ([125I]ABOPX / [3H]ZM241385) at human A2B receptors expressed in HEK-293 cells
- Particulars: read-out: Ki value at human A2B receptors
pKi: −log10 of the molar value.
Respond with true for pKi values of 8 and above, false for values below.

Examples with answers:
• CCCn1c(=O)c2[nH]c(-c3ccc(OCC(=O)NN4C(=O)C(C)=C(C)C4=O)cc3)nc2n(CCC)c1=O [Compound 47] = false
• CCCn1c(=O)c2[nH]c(-c3ccc(OCC(=O)NNC(=O)[C@H](CCC(=O)O)NC(=O)C(F)(F)F)cc3)nc2n(CCC)c1=O [Compound 60] = false
• CCCn1c(=O)c2[nH]c(-c3ccc(OCC(=O)Nc4ccc(C(F)(F)F)cc4)cc3)nc2n(CCC)c1=O [Compound 29] = true
• CCCn1c(=O)c2[nH]c(-c3ccc(OCC(=O)Nc4ccc(I)cc4)cc3)nc2n(CCC)c1=O [Compound 33] = true

Could you now consider this next molecule?
Given CCCn1c(=O)c2[nH]c(-c3ccc(OCC(=O)Nc4ccc([N+](=O)[O-])cc4)cc3)nc2n(CCC)c1=O [Compound 28] , state whether its pKi is at least 8.
true

###

- System Under Test: recombinant human A2A receptors (hA2A) (Homo sapiens)
- Sequence (P29274 whole entry): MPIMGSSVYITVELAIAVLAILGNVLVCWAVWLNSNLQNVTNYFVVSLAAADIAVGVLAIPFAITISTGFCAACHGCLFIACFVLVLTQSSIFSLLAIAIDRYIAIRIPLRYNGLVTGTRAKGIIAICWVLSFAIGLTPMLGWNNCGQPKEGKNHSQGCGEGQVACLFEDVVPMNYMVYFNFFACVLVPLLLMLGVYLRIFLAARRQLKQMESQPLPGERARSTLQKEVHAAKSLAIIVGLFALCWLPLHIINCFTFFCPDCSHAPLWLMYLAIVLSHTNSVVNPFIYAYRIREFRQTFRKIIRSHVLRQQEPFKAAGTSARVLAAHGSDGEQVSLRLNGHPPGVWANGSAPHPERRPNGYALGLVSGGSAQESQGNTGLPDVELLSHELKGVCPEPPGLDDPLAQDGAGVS
- Protocol Details: Radioligand binding (125I-ZM241385) at recombinant human A2A receptors in HEK-293 cells
- Particulars: read-out: hA2A Ki or IC50
Reported Endpoint: Ki
Numeric answer plus unit only.

For the compound shown here, "CCCn1c(=O)c2[nH]c(-c3ccc(OCC(=O)NCc4ccccc4)cc3)nc2n(CCC)c1=O" , give the reported Ki.
0.0238 µM

###

Measured selectivity for human A2B versus rat A1 receptors of individual entries
- System Under Test: human A2B receptors (hA2B) (Homo sapiens, UniProt P29275)
- Construct: expressed in transfected cells; host or cells: HEK-293 (HEK-A2B, G418-selected)
- Sequence (P29275 1-332): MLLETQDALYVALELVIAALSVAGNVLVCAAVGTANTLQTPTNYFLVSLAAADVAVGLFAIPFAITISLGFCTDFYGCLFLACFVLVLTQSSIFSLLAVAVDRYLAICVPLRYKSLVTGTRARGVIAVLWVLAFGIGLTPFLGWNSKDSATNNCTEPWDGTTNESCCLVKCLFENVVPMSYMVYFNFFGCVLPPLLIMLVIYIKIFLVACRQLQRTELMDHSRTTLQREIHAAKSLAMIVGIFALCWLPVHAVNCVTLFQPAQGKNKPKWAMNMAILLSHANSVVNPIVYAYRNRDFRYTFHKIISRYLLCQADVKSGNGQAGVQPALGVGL
- Protocol Details: Radioligand binding ([125I]ABOPX / [3H]ZM241385) at human A2B receptors expressed in HEK-293 cells
Numeric answer plus unit only.

* CCCn1c(=O)c2[nH]c(-c3ccc(OCC(=O)Nc4ccc(C(C)=O)cc4)cc3)nc2n(CCC)c1=O [Compound 20] | 27 fold
* CCCn1c(=O)c2[nH]c(-c3ccc(OCC(=O)Nc4ccccc4C(C)=O)cc3)nc2n(CCC)c1=O [Compound 18] | 10 fold
* CCCn1c(=O)c2[nH]c(-c3ccc(OCC(=O)Nc4ccc(F)cc4)cc3)nc2n(CCC)c1=O [Compound 30] | 1 fold

# get_value(readout= selectivity for human A2B versus rat A1 receptors, system= human A2B receptors (hA2B) (Homo sapiens, UniProt P29275)) for CCCn1c(=O)c2[nH]c(-c3ccc(OCC(=O)N(C)c4ccccc4)cc3)nc2n(CCC)c1=O [Compound 16]
40 fold

###

- System Under Test: human A2B receptors (hA2B) (Homo sapiens)
- Construct: expressed in transfected cells; host or cells: HEK-293 (HEK-A2B, G418-selected)
- Protocol Details: Radioligand binding ([125I]ABOPX / [3H]ZM241385) at human A2B receptors expressed in HEK-293 cells
- Particulars: Table 2; read-out: hA2B Ki or IC50
Reported Endpoint: Ki (nM)
Expressed in nM, but write only the number.

Consider the following illustrative entries.
• CCCn1c(=O)c2[nH]c(-c3ccc(OCC(=O)Nc4ccc(Cl)cc4)cc3)nc2n(CCC)c1=O = 2.47
• CCCn1c(=O)c2[nH]c(-c3ccc(OCC(=O)Nc4ccccc4C(C)=O)cc3)nc2n(CCC)c1=O = 2.74
• CCCn1c(=O)c2[nH]c(-c3ccc(OCC(=O)Nc4ccc(C(C)=O)cc4)cc3)nc2n(CCC)c1=O = 1.39

Moving on to the next compound.
For the compound shown here, "CCCn1c(=O)c2[nH]c(-c3ccc(OCC(=O)NC(c4ccccc4)c4ccccc4)cc3)nc2n(CCC)c1=O" , give the reported Ki.
33.7

###

Measured Ki of individual entries
- System Under Test: rat A1 receptors (rA1) (Rattus norvegicus, UniProt P25099)
- Construct: to A1 receptors from rat cerebral cortical membranes; from tissue; host or cells: rat cerebral cortical (brain) membranes
- Sequence (P25099 1-326): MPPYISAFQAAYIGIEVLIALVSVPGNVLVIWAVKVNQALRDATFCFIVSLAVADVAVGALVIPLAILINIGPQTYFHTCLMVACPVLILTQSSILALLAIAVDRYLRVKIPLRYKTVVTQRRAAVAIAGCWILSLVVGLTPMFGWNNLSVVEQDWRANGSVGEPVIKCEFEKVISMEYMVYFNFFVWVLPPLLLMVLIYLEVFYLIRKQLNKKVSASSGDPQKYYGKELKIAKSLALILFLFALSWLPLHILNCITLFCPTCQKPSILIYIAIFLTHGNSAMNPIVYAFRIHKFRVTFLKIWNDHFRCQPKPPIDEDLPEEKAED
- Protocol Details: Displacement of [3H]R-PIA binding in rat brain (cerebral cortical) membranes
- Particulars: Table 4; read-out: rA1 Ki
Numeric answer plus unit only.

Consider the following illustrative entries.
* CCCn1c(=O)c2[nH]c(-c3ccc(OCC(=O)NN4C(=O)C=C(C)C4=O)cc3)nc2n(CCC)c1=O | 203 nM
* CCCn1c(=O)c2[nH]c(-c3ccc(OCC(=O)NNC(=O)C4=C(C(=O)O)CCCC4)cc3)nc2n(CCC)c1=O | 47.2 nM
* CCCn1c(=O)c2[nH]c(-c3ccc(OCC(=O)NN4C(=O)CC(O)CC4=O)cc3)nc2n(CCC)c1=O | 41.2 nM
* CCCn1c(=O)c2[nH]c(-c3ccc(OCC(=O)NNC(=O)C4=C(C(=O)O)CCC4)cc3)nc2n(CCC)c1=O | 81.7 nM
* CCCn1c(=O)c2[nH]c(-c3ccc(OCC(=O)NN4C(=O)C(C)=C(C)C4=O)cc3)nc2n(CCC)c1=O | 11.1 nM
* CCCn1c(=O)c2[nH]c(-c3ccc(OCC(=O)NNC(C)=O)cc3)nc2n(CCC)c1=O | 6.51 nM
* CCCn1c(=O)c2[nH]c(-c3ccc(OCC(=O)NNC(=O)C4CC=CCC4C(=O)O)cc3)nc2n(CCC)c1=O (stereo not shown) | 134 nM
* CCCn1c(=O)c2[nH]c(-c3ccc(OCC(=O)NN4C(=O)C5=C(CCC5)C4=O)cc3)nc2n(CCC)c1=O | 41.3 nM
* CCCn1c(=O)c2[nH]c(-c3ccc(OCC(=O)NNC(=O)CNC(=O)CNC(=O)OCc4ccccc4)cc3)nc2n(CCC)c1=O | 36 nM
* CCCn1c(=O)c2[nH]c(-c3ccc(OCC(=O)NN4C(=O)c5ccccc5C4=O)cc3)nc2n(CCC)c1=O | 26.3 nM

# get_value(readout= Ki, system= rat A1 receptors (rA1) (Rattus norvegicus, UniProt P25099)) for "CCCn1c(=O)c2[nH]c(-c3ccc(OCC(=O)NN4C(=O)CCCC4=O)cc3)nc2n(CCC)c1=O"
14 nM

# get_value(readout= Ki, system= rat A1 receptors (rA1) (Rattus norvegicus, UniProt P25099)) for "CCCn1c(=O)c2[nH]c(-c3ccc(OCC(=O)NNC(=O)CCC(=O)O)cc3)nc2n(CCC)c1=O"
73.3 nM

# get_value(readout= Ki, system= rat A1 receptors (rA1) (Rattus norvegicus, UniProt P25099)) for CCCn1c(=O)c2[nH]c(-c3ccc(OCC(=O)NN4C(=O)CCC(c5ccccc5)C4=O)cc3)nc2n(CCC)c1=O (stereo not shown)
3.87 nM
